# assayProcedure: recombinant UMI read abundance after kanamycin selection (control-corrected) (log10(CPM+1)); higher = more efficient recombination; extreme values may be limits of the assay; sequences stand for … in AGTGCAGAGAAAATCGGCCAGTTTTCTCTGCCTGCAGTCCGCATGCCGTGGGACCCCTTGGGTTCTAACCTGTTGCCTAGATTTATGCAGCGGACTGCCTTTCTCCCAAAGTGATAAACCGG…AGGTTGGTTTCACT; site = the 11-nt donor;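 further: IS621 bridge recombinase in Escherichia coli cells against a fixed T5 target plasmid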
valueKind: recombinant UMI read abundance (log10)

chainSequence: CGTTTGGCATGGACCGGTTTTCCCGGTAATCCGTATTTGCC (site CGTTTGGCTGG)
readoutNumber: 0
//
chainSequence: ACATATCCATGGACCGGTTTTCCCGGTAATCCGTATTTGAC (site ACACATCCTGT)
readoutNumber: 0.817
//
chainSequence: GAAGATTCATGGACCGGTTTTCCCGGTAATCCGTATTTGTA (site GAAGATTCTCA)
readoutNumber: 1.55
//
chainSequence: CTTTATACATGGACCGGTTTTCCCGGTAATCCGTATTTGTT (site CTTTATACTAA)
readoutNumber: 0.121
//
chainSequence: TAAGCTCCATGGACCGGTTTTCCCGGTAATCCGTATTTGCG (site TAAGCTCCTCG)
readoutNumber: 0.303

###

# assayProcedure: recombinant UMI read abundance after kanamycin selection (control-corrected) (log10(CPM+1)); higher = more efficient recombination; extreme values may be limits of the assay; sequences stand for … in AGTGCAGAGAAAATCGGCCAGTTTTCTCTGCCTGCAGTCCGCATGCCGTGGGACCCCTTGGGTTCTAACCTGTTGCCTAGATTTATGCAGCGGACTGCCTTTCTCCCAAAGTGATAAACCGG…AGGTTGGTTTCACT; site = the 11-nt donor

chainSequence: GTAAACCCATGGACCGGTTTTCCCGGTAATCCGTATTTGAT (site GTAAACCCTAT)
recombinant UMI read abundance (log10): 1.45

chainSequence: GCGAAACCATGGACCGGTTTTCCCGGTAATCCGTATTTGGG (site GCGAATCCTCC)
recombinant UMI read abundance (log10): 0

chainSequence: TAAGGGGCATGGACCGGTTTTCCCGGTAATCCGTATTTGGC (site TAAGGGGCTGC)
recombinant UMI read abundance (log10): 2.41

chainSequence: ACTAGAACATGGACCGGTTTTCCCGGTAATCCGTATTTGGG (site ACTAGAACTCC)
recombinant UMI read abundance (log10): 0.113

chainSequence: GTAGTTCCATGGACCGGTTTTCCCGGTAATCCGTATTTGGT (site GTGGTTCCTAC)
recombinant UMI read abundance (log10): 0.00522

chainSequence: GTAGTCGCATGGACCGGTTTTCCCGGTAATCCGTATTTGCT (site GTAGTCGCTAG)
recombinant UMI read abundance (log10): 2.87

chainSequence: TTGGTTTCATGGACCGGTTTTCCCGGTAATCCGTATTTGTT (site TTGGTTTCTAA)
recombinant UMI read abundance (log10): 0.417

chainSequence: CGCTAGCCATGGACCGGTTTTCCCGGTAATCCGTATTTGCC (site CCCTAGCCTGG)
recombinant UMI read abundance (log10): 0

chainSequence: CAAGCGCCATGGACCGGTTTTCCCGGTAATCCGTATTTGAG (site CAAGCGCCTCG)
recombinant UMI read abundance (log10): 0.0182

chainSequence: GTGGCACCATGGACCGGTTTTCCCGGTAATCCGTATTTGAG (site GTGGCACCTCT)
recombinant UMI read abundance (log10): 0.0198

chainSequence: CACGTGGCATGGACCGGTTTTCCCGGTAATCCGTATTTGGA (site CACTTGGCTTC)
recombinant UMI read abundance (log10): 0.235

chainSequence: GAAGATTCATGGACCGGTTTTCCCGGTAATCCGTATTTGTA (site GAAGATTCTGA)
recombinant UMI read abundance (log10): 0

chainSequence: GACAAACCATGGACCGGTTTTCCCGGTAATCCGTATTTGCT (site GACAAACCTAT)
recombinant UMI read abundance (log10): 0

chainSequence: AGCCCTTCATGGACCGGTTTTCCCGGTAATCCGTATTTGAC (site AGCCATTCTGT)
recombinant UMI read abundance (log10): 0

chainSequence: ATCGAGACATGGACCGGTTTTCCCGGTAATCCGTATTTGGT (site ATCGAGACTAC)
recombinant UMI read abundance (log10): 1.01

chainSequence: TTTGCGGCATGGACCGGTTTTCCCGGTAATCCGTATTTGAT (site TTTGCGGCTAA)
recombinant UMI read abundance (log10): 0.015

chainSequence: CGGGAATCATGGACCGGTTTTCCCGGTAATCCGTATTTGCC (site CGGGATTCTGG)
recombinant UMI read abundance (log10): 0.646

chainSequence: TGGCCGGCATGGACCGGTTTTCCCGGTAATCCGTATTTGGA (site TGGCCGGCTCC)
recombinant UMI read abundance (log10): 0.0416

###

Entries annotated with measured recombinant UMI read abundance (log10)
# assayProcedure: recombinant UMI read abundance after kanamycin selection (control-corrected) (log10(CPM+1)); higher = more efficient recombination; extreme values may be limits of the assay; sequences stand for … in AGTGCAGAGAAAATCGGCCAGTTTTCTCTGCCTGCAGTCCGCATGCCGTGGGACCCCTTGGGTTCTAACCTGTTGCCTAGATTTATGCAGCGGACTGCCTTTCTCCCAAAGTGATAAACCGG…AGGTTGGTTTCACT; site = the 11-nt donor

chainSequence: ATGCAAACATGGACCGGTTTTCCCGGTAATCCGTATTTGGA (site ATGCAAACTTC)
recombinant UMI read abundance (log10): 1.69
//
chainSequence: GGTCGAGCATGGACCGGTTTTCCCGGTAATCCGTATTTGCA (site GGTCGAGCTTG)
recombinant UMI read abundance (log10): 1.83
//
chainSequence: AGGAAAACATGGACCGGTTTTCCCGGTAATCCGTATTTGCA (site AGGAAAACTTG)
recombinant UMI read abundance (log10): 0.959
//
chainSequence: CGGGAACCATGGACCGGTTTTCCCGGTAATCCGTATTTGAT (site CGGGAACCTAT)
recombinant UMI read abundance (log10): 0
//
chainSequence: AGATCTACATGGACCGGTTTTCCCGGTAATCCGTATTTGTG (site AGATCTACTCA)
recombinant UMI read abundance (log10): 0.215
//
chainSequence: GGTCGCTCATGGACCGGTTTTCCCGGTAATCCGTATTTGCT (site GGTCGCTCTAG)
recombinant UMI read abundance (log10): 0.782
//
chainSequence: CCATTCCCATGGACCGGTTTTCCCGGTAATCCGTATTTGCT (site CGATTCCCTAG)
recombinant UMI read abundance (log10): 0
//
chainSequence: AGGACGACATGGACCGGTTTTCCCGGTAATCCGTATTTGCA (site AGGACGACTTG)
recombinant UMI read abundance (log10): 2.51
//
chainSequence: TTTGTAGCATGGACCGGTTTTCCCGGTAATCCGTATTTGGA (site TTTGTAGCTTC)
recombinant UMI read abundance (log10): 0.00646

###

# assayProcedure: recombinant UMI read abundance after kanamycin selection (control-corrected) (log10(CPM+1)); higher = more efficient recombination; extreme values may be limits of the assay; sequences stand for … in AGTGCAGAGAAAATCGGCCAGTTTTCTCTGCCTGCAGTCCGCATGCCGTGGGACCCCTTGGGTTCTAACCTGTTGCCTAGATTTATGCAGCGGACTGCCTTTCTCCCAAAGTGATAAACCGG…AGGTTGGTTTCACT; site = the 11-nt donor
Entries annotated with measured recombinant UMI read abundance (log10)

chainSequence: CATATTGCATGGACCGGTTTTCCCGGTAATCCGTATTTGTT (site CATATTGCTAA)
recombinant UMI read abundance (log10): 1.21
//
chainSequence: ATGGAGGCATGGACCGGTTTTCCCGGTAATCCGTATTTGGC (site ATGGAGGCTGC)
recombinant UMI read abundance (log10): 2.53
//
chainSequence: CCAGCTGCATGGACCGGTTTTCCCGGTAATCCGTATTTGAT (site CCAGGTGCTAT)
recombinant UMI read abundance (log10): 0.00694
//
chainSequence: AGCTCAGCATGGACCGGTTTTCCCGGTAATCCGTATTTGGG (site AGCTCGGCTCC)
recombinant UMI read abundance (log10): 0.0329
//
chainSequence: GGCTCAGCATGGACCGGTTTTCCCGGTAATCCGTATTTGGG (site GGCTCAGCTCC)
recombinant UMI read abundance (log10): 0.02
//
chainSequence: ACTAGTGCATGGACCGGTTTTCCCGGTAATCCGTATTTGGA (site ACTAGTGCTCC)
recombinant UMI read abundance (log10): 0.0115
//
chainSequence: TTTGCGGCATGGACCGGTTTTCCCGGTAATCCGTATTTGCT (site TTTGTGGCTAG)
recombinant UMI read abundance (log10): 0.00957
//
chainSequence: GCTATGGCATGGACCGGTTTTCCCGGTAATCCGTATTTGAA (site GCTATGGCTTT)
recombinant UMI read abundance (log10): 1.55
//
chainSequence: TGCTGTCCATGGACCGGTTTTCCCGGTAATCCGTATTTGTT (site TGCTGTCCTAA)
recombinant UMI read abundance (log10): 0.00448
//
chainSequence: GATTGGACATGGACCGGTTTTCCCGGTAATCCGTATTTGCC (site GATTGGACTGT)
recombinant UMI read abundance (log10): 0
//
chainSequence: GGTCATTCATGGACCGGTTTTCCCGGTAATCCGTATTTGTG (site GGTCATTCTCA)
recombinant UMI read abundance (log10): 1.05
//
chainSequence: TGCCAATCATGGACCGGTTTTCCCGGTAATCCGTATTTGTG (site TGCCAATCTCA)
recombinant UMI read abundance (log10): 0.0694
//
chainSequence: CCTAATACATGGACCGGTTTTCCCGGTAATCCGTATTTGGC (site CCTAATACTGA)
recombinant UMI read abundance (log10): 0.0391
//
chainSequence: CAATGCCCATGGACCGGTTTTCCCGGTAATCCGTATTTGCT (site CAATGCCCTAG)
recombinant UMI read abundance (log10): 1.34
//
chainSequence: GTGGAGGCATGGACCGGTTTTCCCGGTAATCCGTATTTGCG (site GTGGAGGCTCA)
recombinant UMI read abundance (log10): 1.56
//
chainSequence: CTGCTAACATGGACCGGTTTTCCCGGTAATCCGTATTTGCT (site CTGCTACCTAG)
recombinant UMI read abundance (log10): 0
//
chainSequence: TGCCGGTCATGGACCGGTTTTCCCGGTAATCCGTATTTGCA (site TGCCGGTCTTG)
recombinant UMI read abundance (log10): 1.45
//
chainSequence: CGTAGAACATGGACCGGTTTTCCCGGTAATCCGTATTTGTT (site CGTAGAACTAA)
recombinant UMI read abundance (log10): 0.685
//
chainSequence: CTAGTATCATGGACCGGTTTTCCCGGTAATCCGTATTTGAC (site CTAGTATCTCT)
recombinant UMI read abundance (log10): 1.67
//
chainSequence: ACCTGGGCATGGACCGGTTTTCCCGGTAATCCGTATTTGTC (site ACCTGGGCTGA)
recombinant UMI read abundance (log10): 0
//
chainSequence: CCATTCCCATGGACCGGTTTTCCCGGTAATCCGTATTTGCT (site CCATTCCCTAG)
recombinant UMI read abundance (log10): 0
//
chainSequence: TTACCTGCATGGACCGGTTTTCCCGGTAATCCGTATTTGTG (site TTAACTGCTCA)
recombinant UMI read abundance (log10): 0.013
//
chainSequence: ACTGAATCATGGACCGGTTTTCCCGGTAATCCGTATTTGCC (site ACTGAATCTGG)
recombinant UMI read abundance (log10): 2.1
//
chainSequence: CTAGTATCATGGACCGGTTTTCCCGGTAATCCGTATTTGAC (site CTAAAATCTGT)
recombinant UMI read abundance (log10): 0
//
chainSequence: ATCCAAGCATGGACCGGTTTTCCCGGTAATCCGTATTTGCG (site ATCCAAGCTCT)
recombinant UMI read abundance (log10): 0.689
//
chainSequence: CAAATCACATGGACCGGTTTTCCCGGTAATCCGTATTTGGG (site CAAGTCACTCC)
recombinant UMI read abundance (log10): 0.00775
//
chainSequence: GATCCTTCATGGACCGGTTTTCCCGGTAATCCGTATTTGTC (site GATCCTTCTGA)
recombinant UMI read abundance (log10): 0.252
//
chainSequence: CTCCCCACATGGACCGGTTTTCCCGGTAATCCGTATTTGAG (site CTCCCTACTCT)
recombinant UMI read abundance (log10): 0
//
chainSequence: GAATGGCCATGGACCGGTTTTCCCGGTAATCCGTATTTGTA (site GAATGGCCTTA)
recombinant UMI read abundance (log10): 0.142
//
chainSequence: CCTAATTCATGGACCGGTTTTCCCGGTAATCCGTATTTGAT (site CCTAATTCTAT)
recombinant UMI read abundance (log10): 0
//
chainSequence: CACTTTGCATGGACCGGTTTTCCCGGTAATCCGTATTTGGA (site CACTTTGCTTC)
recombinant UMI read abundance (log10): 1.71
//
chainSequence: TAGCCGGCATGGACCGGTTTTCCCGGTAATCCGTATTTGGC (site TAGCCGGCTGC)
recombinant UMI read abundance (log10): 1.62
//
chainSequence: CGCTTGGCATGGACCGGTTTTCCCGGTAATCCGTATTTGGA (site CGCTTGGCTTC)
recombinant UMI read abundance (log10): 0.824
//
chainSequence: GGATCATCATGGACCGGTTTTCCCGGTAATCCGTATTTGCT (site TGATCATCTAG)
recombinant UMI read abundance (log10): 0.91
//
chainSequence: CAAGCAGCATGGACCGGTTTTCCCGGTAATCCGTATTTGAT (site CAAGCAGCTAT)
recombinant UMI read abundance (log10): 2.44
//
chainSequence: AAAACCCCATGGACCGGTTTTCCCGGTAATCCGTATTTGGA (site AAAACCCCTTC)
recombinant UMI read abundance (log10): 0.00874

FYI, the data here is from the supplement of paper PMC11208160.
